assay_overview: in vivo
protocol_conditions: male, NodCB17 SCID, mouse, muscle, iv, 0.061 nmol, total radioactivity
readout_label: tissue uptake at 0.25 h (%ID/g)
State the answer as a number, implicitly in %ID/g.

Would you kindly share the measured tissue uptake at 0.25 h for CC(C)C[C@H](NC(=O)C[C@H](O)[C@H](CC(C)C)NC(=O)[C@H](Cc1c[nH]cn1)NC(=O)CNC(=O)[C@@H](NC(=O)[C@H](C)NC(=O)[C@H](Cc1c[nH]c2ccccc12)NC(=O)[C@H](CCC(N)=O)NC(=O)[C@@H](Cc1ccccc1)NC(=O)CCOCCOCCOCCOCCNC(=O)OC1CCCC2=CNN=C(c3ccc(CNC(=O)CN4CCN(CC(=O)O)CCN(CC(=O)O)CCN(CC(=O)O)CC4)cc3)C2CC1)C(C)C)C(N)=O (stereo partly shown) [[90Y]Y-DOTA-Tz-TCO-PEG4-AR, metal not drawn] ? 2.36

###

assay_overview: in vivo
protocol_conditions: male, NodCB17 SCID, mouse, kidneys, iv, 0.061 nmol, total radioactivity
From the text: Searching for a preliminary proof of concept of the intended pre-targeting approach, we synthesized a clickable TCO-containing bombesin antagonist (TCO-PEG4-AR) based on the potent GRPr antagonist AR reported in the literature, as described in the Supplementary Material ([29]). […] from whole animal body. […] Tissue samples of the main organs were then dissected, weighted and counted in a gamma counter (Berthold). […]
readout_label: tissue uptake at 0.25 h (%ID/g)
Only the number, expressed in %ID/g, is required.

What measured tissue uptake at 0.25 h goes with CC(C)C[C@H](NC(=O)C[C@H](O)[C@H](CC(C)C)NC(=O)[C@H](Cc1c[nH]cn1)NC(=O)CNC(=O)[C@@H](NC(=O)[C@H](C)NC(=O)[C@H](Cc1c[nH]c2ccccc12)NC(=O)[C@H](CCC(N)=O)NC(=O)[C@@H](Cc1ccccc1)NC(=O)CCOCCOCCOCCOCCNC(=O)OC1CCCC2=CNN=C(c3ccc(CNC(=O)CN4CCN(CC(=O)O)CCN(CC(=O)O)CCN(CC(=O)O)CC4)cc3)C2CC1)C(C)C)C(N)=O (stereo partly shown) [[90Y]Y-DOTA-Tz-TCO-PEG4-AR, metal not drawn] ? 20.5

###

assay_overview: in vivo
protocol_conditions: male, NodCB17 SCID, mouse, stomach, iv, 0.061 nmol, total radioactivity
readout_label: tissue uptake at 1 h (%ID/g)
Output spec: scalar in %ID/g, unitless text.

Which tissue uptake at 1 h value is on record for CC(C)C[C@H](NC(=O)C[C@H](O)[C@H](CC(C)C)NC(=O)[C@H](Cc1c[nH]cn1)NC(=O)CNC(=O)[C@@H](NC(=O)[C@H](C)NC(=O)[C@H](Cc1c[nH]c2ccccc12)NC(=O)[C@H](CCC(N)=O)NC(=O)[C@@H](Cc1ccccc1)NC(=O)CCOCCOCCOCCOCCNC(=O)OC1CCCC2=CNN=C(c3ccc(CNC(=O)CN4CCN(CC(=O)O)CCN(CC(=O)O)CCN(CC(=O)O)CC4)cc3)C2CC1)C(C)C)C(N)=O (stereo partly shown) [[90Y]Y-DOTA-Tz-TCO-PEG4-AR, metal not drawn] ? 1.95

###

assay_overview: Biodistribution of [111In]In-radiocomplexes in healthy mice
Assay type: in vivo
protocol_conditions: 1 h p.i.
readout_label: Biodistribution: Heart (% I.D./g)
# value in % I.D./g; strip the unit string

Answered cases to consult:
O=C([O-])CN1CCN(CC(=O)[O-])CCN(CC(=O)NCc2ccc(-c3nncnn3)cc2)CCN(CC(=O)[O-])CC1.[111In+3] [[111In]In-DOTA-Tz] :: 0.11
O=C([O-])CN1CCN(CC(=O)[O-])CCN(C(CCC(=O)NCc2ccc(-c3nncnn3)cc2)C(=O)[O-])CCN(CC(=O)[O-])CC1.[111In+3] (stereo not shown) [[111In]In-DOTAGA-Tz] :: 0.4
O=C([O-])CN1CCN(CC(=O)[O-])CCN(C(CCC(=O)NCCOCCOCCOCCOCCOCCOCCOCCOCCOCCOCCOCCNC(=O)CCCC(=O)NCc2ccc(-c3nncnn3)cc2)C(=O)[O-])CCN(CC(=O)[O-])CC1.[111In+3] (stereo not shown) [[111In]In-DOTAGA-PEG-Tz] :: 0.13

Now look at this entry.
Returns the measured Biodistribution: Heart for the input molecule. Input: O=C([O-])CN1CCN(CC(=O)[O-])CCN(CC(=O)NCCOCCOCCOCCOCCOCCOCCOCCOCCOCCOCCOCCNC(=O)CCCC(=O)NCc2ccc(-c3nncnn3)cc2)CCN(CC(=O)[O-])CC1.[111In+3] [[111In]In-DOTA-PEG-Tz] 0.15

Data origin: paper PMC8225959
